Every entry's value here was drawn from ChEMBL document CHEMBL1287679.

# TEST METHOD NOTES: Therapeutic index, concentration required to achieve 100% hemolysis in erythrocyte to MIC for Staphylococcus aureus ATCC 29213
# PROTOCOL CONDITIONS: erythrocytes; read-out: Ratio
Where a SMILES comes first, the peptide text is derived from it. [ ]: non-standard residue; d: D form. Gly(1-adamantyl) = N[C@H](C(=O)O)C12CC3CC(CC(C3)C1)C2; Orn = NCCC[C@H](N)C(=O)O
PARAMETER MEASURED: selectivity ratio

Quick one: selectivity ratio of CC(C)C[C@@H]1NC(=O)[C@H](CCCN)NC(=O)[C@H](C(C)C)NC(=O)[C@H](CCCN)NC(=O)[C@@H]2CCCN2C(=O)[C@@H](Cc2ccccc2)NC(=O)[C@H](CCCN)NC(=O)[C@H](CC23CC4CC(CC(C4)C2)C3)NC(=O)[C@H](CCCN)NC(=O)[C@H](C(C)C)NC(=O)[C@H](CCCN)NC(=O)[C@@H]2CCCN2C(=O)[C@@H](Cc2ccccc2)NC(=O)[C@H](CCCN)NC1=O ? 7.8

What do we get for CC(C)C[C@@H]1NC(=O)[C@H](CCCN)NC(=O)[C@H](C(C)C)NC(=O)[C@@H]2CCCN2C(=O)[C@@H](Cc2ccccc2)NC(=O)[C@H](CC(C)C)NC(=O)[C@H](CCCN)NC(=O)[C@H](C(C)C)NC(=O)[C@H](CCCN)NC(=O)[C@H](CC(C)C)NC(=O)[C@@H]2CCCN2C(=O)[C@@H](Cc2ccccc2)NC(=O)[C@H](C(C)C)NC(=O)[C@H](CCCN)NC1=O (cyclo(L[Orn]V[Orn]L[dF]PV[Orn]L[Orn]V[dF]P)) ? 0.2

Then this compound: NCCC[C@@H]1NC(=O)[C@H](C23CC4CC(CC(C4)C2)C3)NC(=O)[C@H](CCCN)NC(=O)[C@@H]2CCCN2C(=O)[C@@H](Cc2ccccc2)NC(=O)[C@H](CCCN)NC(=O)[C@H](C23CC4CC(CC(C4)C2)C3)NC(=O)[C@H](CCCN)NC(=O)[C@@H]2CCCN2C(=O)[C@@H](Cc2ccccc2)NC1=O (cyclo([Orn][dF]P[Orn][Gly(1-adamantyl)][Orn][dF]P[Orn][Gly(1-adamantyl)])) 62.5

Same again, this time with CC(C)[C@@H]1NC(=O)[C@H](CCCN)NC(=O)[C@@H]2CCCN2C(=O)[C@@H](Cc2ccccc2)NC(=O)[C@H](CCCN)NC(=O)[C@H](CC23CC4CC(CC(C4)C2)C3)NC(=O)[C@H](CCCN)NC(=O)[C@H](C(C)C)NC(=O)[C@H](CCCN)NC(=O)[C@@H]2CCCN2C(=O)[C@@H](Cc2ccccc2)NC(=O)[C@H](CCCN)NC(=O)[C@H](CC23CC4CC(CC(C4)C2)C3)NC(=O)[C@H](CCCN)NC1=O 3.9

Likewise for CC(C)C[C@@H]1NC(=O)[C@H](CCCN)NC(=O)[C@H](C23CC4CC(CC(C4)C2)C3)NC(=O)[C@H](CCCN)NC(=O)[C@@H]2CCCN2C(=O)[C@@H](Cc2ccccc2)NC(=O)[C@H](CCCN)NC(=O)[C@H](CC23CC4CC(CC(C4)C2)C3)NC(=O)[C@H](CCCN)NC(=O)[C@H](C23CC4CC(CC(C4)C2)C3)NC(=O)[C@H](CCCN)NC(=O)[C@@H]2CCCN2C(=O)[C@@H](Cc2ccccc2)NC(=O)[C@H](CCCN)NC1=O ? 1
